TEST TARGET: Cdc7/Dbf4 (Homo sapiens)
Sequence (O00311 whole entry): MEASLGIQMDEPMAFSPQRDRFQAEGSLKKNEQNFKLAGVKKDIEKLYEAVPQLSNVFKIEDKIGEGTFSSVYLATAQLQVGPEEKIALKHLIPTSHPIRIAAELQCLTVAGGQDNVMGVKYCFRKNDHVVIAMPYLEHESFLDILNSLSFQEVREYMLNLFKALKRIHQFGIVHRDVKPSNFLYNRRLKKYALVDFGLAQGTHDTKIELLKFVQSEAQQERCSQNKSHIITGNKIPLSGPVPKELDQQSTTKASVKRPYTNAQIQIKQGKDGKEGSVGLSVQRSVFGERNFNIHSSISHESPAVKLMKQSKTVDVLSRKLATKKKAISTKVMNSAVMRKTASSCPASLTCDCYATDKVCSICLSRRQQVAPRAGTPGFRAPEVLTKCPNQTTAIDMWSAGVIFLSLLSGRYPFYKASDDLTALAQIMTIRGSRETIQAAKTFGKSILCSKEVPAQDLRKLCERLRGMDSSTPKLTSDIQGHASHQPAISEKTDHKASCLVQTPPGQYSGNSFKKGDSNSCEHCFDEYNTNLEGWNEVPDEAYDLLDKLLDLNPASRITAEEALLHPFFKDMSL
Sequence (Q9UBU7 whole entry partner): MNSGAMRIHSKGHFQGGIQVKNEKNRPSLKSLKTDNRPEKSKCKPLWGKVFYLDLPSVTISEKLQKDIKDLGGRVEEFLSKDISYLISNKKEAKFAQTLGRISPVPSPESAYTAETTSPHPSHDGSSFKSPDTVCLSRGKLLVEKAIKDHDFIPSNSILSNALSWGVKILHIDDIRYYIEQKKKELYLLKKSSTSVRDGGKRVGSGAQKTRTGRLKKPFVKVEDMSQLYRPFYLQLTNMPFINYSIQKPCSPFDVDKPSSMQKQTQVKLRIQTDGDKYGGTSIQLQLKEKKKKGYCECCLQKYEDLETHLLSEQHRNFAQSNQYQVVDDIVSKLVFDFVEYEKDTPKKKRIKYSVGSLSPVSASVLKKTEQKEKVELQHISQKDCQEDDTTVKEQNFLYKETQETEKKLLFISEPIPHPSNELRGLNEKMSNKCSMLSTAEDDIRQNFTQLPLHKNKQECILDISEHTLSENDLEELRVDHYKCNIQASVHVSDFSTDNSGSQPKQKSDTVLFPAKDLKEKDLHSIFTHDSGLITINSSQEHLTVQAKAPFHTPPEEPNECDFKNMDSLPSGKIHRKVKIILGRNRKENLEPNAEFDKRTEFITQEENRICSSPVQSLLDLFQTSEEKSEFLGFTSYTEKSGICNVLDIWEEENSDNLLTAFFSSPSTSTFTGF
TEST DETAILS: Inhibition assay of Cdc7/Dbf4 activity (Dowex resin capture, MCM2 substrate)
SETUP CONDITIONS: Cdc7/Dbf4, MCM2 substrate 6 μM, ATP 2 μM
Structures can show the parent of a compound that is named as a salt.
MEASURED METRIC: IC50
Give your result as the value with the unit written after it.

Check out these entries, answers already filled in.
| COMPOUND | IC50 |
| --- | --- |
| O=C1NCC(Cc2ccccc2)c2[nH]c(-c3ccncc3)cc21 (stereo not drawn) | 17 nM |
| O=C1NCCc2[nH]c(-c3ccnc4[nH]ccc34)cc21 [hydrochloride] | 16 nM |
| CC(C)C1CNC(=O)c2cc(-c3ccncc3)[nH]c21 (stereo not drawn) | 20 nM |
| Cc1c(-c2ccncc2)[nH]c2c1C(=O)NCC2 [hydrochloride] | 3 nM |
| O=C1NC(C2CC2)Cc2[nH]c(-c3ccncc3)cc21 (stereo not drawn) | 2 nM |

Recorded IC50 for O=C1NCCc2[nH]c(-c3ccncc3F)cc21 [hydrochloride] on Cdc7/Dbf4 (Homo sapiens) was 8 nM

Recorded IC50 for C[C@H]1Cc2[nH]c(-c3ccncc3)cc2C(=O)N1 on Cdc7/Dbf4 (Homo sapiens) was 14 nM

Recorded IC50 for O=C1NCC2(CC2)c2[nH]c(-c3ccncc3)cc21 on Cdc7/Dbf4 (Homo sapiens) was 2 nM

Recorded IC50 for CC(C)C1Cc2[nH]c(-c3ccncc3)cc2C(=O)N1 (stereo not drawn) [hydrochloride] on Cdc7/Dbf4 (Homo sapiens) was 9 nM
